Test system: 299254-011-R-J1-PDC complex spheroid viability
Assay Method Text: Anticancer human tumor 299254-011-R-J1-PDC patient-derived melanoma cell line growth inhibition [POLQ]
Run Parameters: second compound 10 µM; first compound 10 µM; stronger effect = lower value
Mark yes (1) for viability, T/C under 60%, no (0) if at or over.

// below: answered compounds
# Compound, Assigned Label
data = [
    ("C=CC(=O)N1CCN(c2nc(=O)n(-c3c(C)ccnc3C(C)C)c3nc(-c4c(O)cccc4F)c(F)cc23)C(C)C1 (stereo not given) + COC1C(OC(N)=O)C(O)C(Oc2ccc3c(O)c(NC(=O)c4ccc(O)c(CC=C(C)C)c4)c(=O)oc3c2C)OC1(C)C", "yes (1)"),
    ("CCc1cc2c(N3CCc4c(cc(Cn5ccnc5)cc4-c4cn(C)nc4C(F)(F)F)C3=O)cc(C)nc2c(OC)n1 + COC1C(OC(N)=O)C(O)C(Oc2ccc3c(O)c(NC(=O)c4ccc(O)c(CC=C(C)C)c4)c(=O)oc3c2C)OC1(C)C", "no (0)"),
    ("CCCS(=O)(=O)Nc1ccc(F)c(C(=O)c2c[nH]c3ncc(-c4ccc(Cl)cc4)cc23)c1F + COC1C(OC(N)=O)C(O)C(Oc2ccc3c(O)c(NC(=O)c4ccc(O)c(CC=C(C)C)c4)c(=O)oc3c2C)OC1(C)C", "no (0)"),
]

## Task viability, T/C strictly < 60% for this compound? O=c1[nH]cc(F)c(=O)[nH]1 + Nc1ccc(C#CCN(C(=O)Cc2ncc(C(F)(F)F)cc2C(F)(F)F)c2ccc(F)cc2)nn1
## Result no (0)

## Task viability, T/C strictly < 60% for this compound? CCCS(=O)(=O)Nc1ccc(F)c(C(=O)c2c[nH]c3ncc(-c4ccc(Cl)cc4)cc23)c1F + Cc1cccc(N(C)C(=O)C2C(O)CCN2c2nc(C)cc(C(F)(F)F)c2C#N)c1
## Result yes (1)

## Task viability, T/C strictly < 60% for this compound? CNCc1ccc(-c2[nH]c3cc(F)cc4c3c2CCNC4=O)cc1 + Nc1ccc(C#CCN(C(=O)Cc2ncc(C(F)(F)F)cc2C(F)(F)F)c2ccc(F)cc2)nn1
## Result no (0)

## Task viability, T/C strictly < 60% for this compound? CCCS(=O)(=O)Nc1ccc(F)c(C(=O)c2c[nH]c3ncc(-c4ccc(Cl)cc4)cc23)c1F + Nc1ccc(C#CCN(C(=O)Cc2ncc(C(F)(F)F)cc2C(F)(F)F)c2ccc(F)cc2)nn1
## Result yes (1)

## Task viability, T/C strictly < 60% for this compound? COc1cccc2c1C(=O)c1c(O)c3c(c(O)c1C2=O)CC(O)(C(=O)CO)CC3OC1CC(N)C(O)C(C)O1 (stereo not given) + Cc1cccc(N(C)C(=O)C2C(O)CCN2c2nc(C)cc(C(F)(F)F)c2C#N)c1
## Result yes (1)

## Task viability, T/C strictly < 60% for this compound? CC1COCCN1c1cc(C2(S(C)(=N)=O)CC2)nc(-c2ccnc3[nH]ccc23)n1 (stereo not given) + Cc1cccc(N(C)C(=O)C2C(O)CCN2c2nc(C)cc(C(F)(F)F)c2C#N)c1
## Result yes (1)

## Task viability, T/C strictly < 60% for this compound? COc1ccc([C@@H](O)c2cc(-c3ncnc4cc(N5CCOCC5)ccc34)c(F)cc2Cl)nn1 + Cc1cccc(N(C)C(=O)C2C(O)CCN2c2nc(C)cc(C(F)(F)F)c2C#N)c1
## Result yes (1)

====

Test system: 299254-011-R-J1-PDC complex spheroid viability
Assay Method Text: Anticancer human tumor 299254-011-R-J1-PDC cell line growth inhibition [POLQ];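 note: spheroids exposed to drugs for one week before measurement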
Run Parameters: curve of first compound; second compound 1 µM
A collection of compounds and their measured pIC50
# pIC50: negative log10 of molar concentration; output just the value

Previously resolved entries follow.
# Compound, Experimental System, Measured Result
measured = [
    ("CC1COCCN1c1cc(-c2ccnn2C)c2ccnc(-c3ccn[nH]3)c2n1 (stereo unspecified) + Cc1cccc(N(C)C(=O)C2C(O)CCN2c2nc(C)cc(C(F)(F)F)c2C#N)c1", "299254-011-R-J1-PDC complex spheroid viability", 6.66),
    ("COc1cccc(OCCCN)c1-c1cc(Nc2cnc(C#N)cn2)n[nH]1 + Nc1ccc(C#CCN(C(=O)Cc2ncc(C(F)(F)F)cc2C(F)(F)F)c2ccc(F)cc2)nn1", "299254-011-R-J1-PDC complex spheroid viability", 7.10),
    ("CC1COCCN1c1cc(-c2ccnn2C)c2ccnc(-c3ccn[nH]3)c2n1 (stereo unspecified) + COC1C(OC(N)=O)C(O)C(Oc2ccc3c(O)c(NC(=O)c4ccc(O)c(CC=C(C)C)c4)c(=O)oc3c2C)OC1(C)C", "299254-011-R-J1-PDC complex spheroid viability", 6.62),
    ("Nc1ccn(C2OC(CO)C(O)C2(F)F)c(=O)n1 (stereo unspecified) + Nc1ccc(C#CCN(C(=O)Cc2ncc(C(F)(F)F)cc2C(F)(F)F)c2ccc(F)cc2)nn1", "299254-011-R-J1-PDC complex spheroid viability", 6.60),
    ("COc1ccc([C@@H](O)c2cc(-c3ncnc4cc(N5CCOCC5)ccc34)c(F)cc2Cl)nn1 + Nc1ccc(C#CCN(C(=O)Cc2ncc(C(F)(F)F)cc2C(F)(F)F)c2ccc(F)cc2)nn1", "299254-011-R-J1-PDC complex spheroid viability", 5.05),
]

Lab book: pIC50 of CC1COCCN1c1cc(-c2ccnn2C)c2ccnc(-c3ccn[nH]3)c2n1 (stereo unspecified) + Nc1ccc(C#CCN(C(=O)Cc2ncc(C(F)(F)F)cc2C(F)(F)F)c2ccc(F)cc2)nn1 noted as 6.58

====

A collection of compounds and their measured viability, T/C
Tested on: 299254-011-R-J1-PDC complex spheroid viability
Assay Method Text: Anticancer human tumor 299254-011-R-J1-PDC cell line growth inhibition [POLQ];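 note: spheroids exposed to drugs for one week before measurement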;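 for viability, T/C: percent viability relative to DMSO vehicle control taken as 100%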
Run Parameters: second compound 0.1 µM; first compound 10 µM; stronger effect = lower value
Procedure: Multicellular complex tumor spheroid response to Polymerase (POL) inhibitors (novobiocin, ART-558, RP6685) in combination with a variety of drugs and investigational agents in selected tumor cell lines The POL inhibitors (novobiocin, ART-558, and RP6685) were evaluated both individually and in combination with standard of care and investigational anticancer small molecules within a complex spheroid model of solid tumors. . […]

Previously resolved entries follow.
# Compound, viability, T/C
measured = [
    ("COc1cc(C2c3cc4c(cc3C(OC3OC5COC(C)OC5C(O)C3O)C3COC(=O)C23)OCO4)cc(OC)c1O (stereo not drawn) + COC1C(OC(N)=O)C(O)C(Oc2ccc3c(O)c(NC(=O)c4ccc(O)c(CC=C(C)C)c4)c(=O)oc3c2C)OC1(C)C", "48.2%"),
    ("O=C(Nc1ccc(O)c(NS(=O)(=O)c2ccc(F)cc2)c1)c1ccc(-c2ccccc2)cc1 + COC1C(OC(N)=O)C(O)C(Oc2ccc3c(O)c(NC(=O)c4ccc(O)c(CC=C(C)C)c4)c(=O)oc3c2C)OC1(C)C", "57.1%"),
]

Lab book: viability, T/C of CNCc1ccc(-c2[nH]c3cc(F)cc4c3c2CCNC4=O)cc1 + Cc1cccc(N(C)C(=O)C2C(O)CCN2c2nc(C)cc(C(F)(F)F)c2C#N)c1 noted as 118%

====

Test system: 299254-011-R-J1-PDC complex spheroid viability
Assay Method Text: Anticancer human tumor 299254-011-R-J1-PDC cell line growth inhibition [POLQ];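 note: spheroids exposed to drugs for one week before measurement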;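 for viability, T/C: percent viability relative to DMSO vehicle control taken as 100%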
Run Parameters: second compound 0.316 µM; first compound 10 µM; stronger effect = lower value
Observation Type: viability, T/C (%)
Give just the numeric value; % need not be written.

Previously resolved entries follow.
# Compound, Observation Type, Measured Result
data = [
    ("COc1cccc2c1C(=O)c1c(O)c3c(c(O)c1C2=O)CC(O)(C(=O)CO)CC3OC1CC(N)C(O)C(C)O1 (stereo not drawn) + COC1C(OC(N)=O)C(O)C(Oc2ccc3c(O)c(NC(=O)c4ccc(O)c(CC=C(C)C)c4)c(=O)oc3c2C)OC1(C)C", "viability, T/C", 0.51),
    ("CC1COCCN1c1cc(C2(O)CC3CCC(C2)O3)c2cnn(-c3ccn[nH]3)c2n1 (stereo not drawn) + Cc1cccc(N(C)C(=O)C2C(O)CCN2c2nc(C)cc(C(F)(F)F)c2C#N)c1", "viability, T/C", 7.95),
]

Lab book: viability, T/C of COc1ccc([C@@H](O)c2cc(-c3ncnc4cc(N5CCOCC5)ccc34)c(F)cc2Cl)nn1 + Cc1cccc(N(C)C(=O)C2C(O)CCN2c2nc(C)cc(C(F)(F)F)c2C#N)c1 noted as 43.6

====

System: 299254-011-R-J1-PDC complex spheroid viability
Assay Method Text: Anticancer human tumor 299254-011-R-J1-PDC cell line growth inhibition [POLQ];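 note: spheroids exposed to drugs for one week before measurement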;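 for viability, T/C: percent viability relative to DMSO vehicle control taken as 100%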
Run Parameters: second compound 10 µM; first compound 10 µM; stronger effect = lower value
Mark 1 (yes) for viability, T/C under 70%, 0 (no) if at or over.

# Compound, Assigned Label
records = [
    ("COc1cc2cc(C(=O)CCC(=O)O)sc2cc1OC + Nc1ccc(C#CCN(C(=O)Cc2ncc(C(F)(F)F)cc2C(F)(F)F)c2ccc(F)cc2)nn1", "0 (no)"),
    ("CNCc1ccc(-c2[nH]c3cc(F)cc4c3c2CCNC4=O)cc1 + COC1C(OC(N)=O)C(O)C(Oc2ccc3c(O)c(NC(=O)c4ccc(O)c(CC=C(C)C)c4)c(=O)oc3c2C)OC1(C)C", "0 (no)"),
    ("C=CC(=O)N1CCN(c2nc(=O)n(-c3c(C)ccnc3C(C)C)c3nc(-c4c(O)cccc4F)c(F)cc23)C(C)C1 (stereo not drawn) + Nc1ccc(C#CCN(C(=O)Cc2ncc(C(F)(F)F)cc2C(F)(F)F)c2ccc(F)cc2)nn1", "0 (no)"),
    ("Nc1ccn(C2OC(CO)C(O)C2(F)F)c(=O)n1 (stereo not drawn) + Nc1ccc(C#CCN(C(=O)Cc2ncc(C(F)(F)F)cc2C(F)(F)F)c2ccc(F)cc2)nn1", "1 (yes)"),
]

## Task viability, T/C strictly < 70% for this compound? COc1cc(C2c3cc4c(cc3C(OC3OC5COC(C)OC5C(O)C3O)C3COC(=O)C23)OCO4)cc(OC)c1O (stereo not drawn) + COC1C(OC(N)=O)C(O)C(Oc2ccc3c(O)c(NC(=O)c4ccc(O)c(CC=C(C)C)c4)c(=O)oc3c2C)OC1(C)C
## Result 1 (yes)
